viability at 10 µM: recorded values
System: ND3 neuronal cell line
Test: Measurement of nerve growth stimulation effect (neurite bearing assay, neurite length assay, number of cells)
Assay type: cell-based
Details: 10 μM; 6 hours; relative cell number, DMSO well = 1
quantity_name: viability at 10 µM (%)

COCCCCCCCCCCCCCC1=C(C)C(=O)CCC1(C)C = 68
CC1=C(CCCCCCCCCCCCCCCOc2ccccc2)C(C)(C)CCC1=O = 93
COCCCCCCCCCCCCCCCC1=C(C)C(=O)CCC12CC2 = 75
CCCOCCCCCCCCCCCCCC1=C(C)C(=O)CCC1(C)C = 88
COCCCCCCCCCCCCCCCC1=C(C)C(=O)CC1 = 83
CC1=C(CCCCCCCCCCCCCCCO)C(C)(C)CCC1=O [Compound 4, reference compound] = 101
COCCCCCCCCCCCCCCCC1=C(C)C(=O)CCC1(C)C = 92
CC1=C(CCCCCCCCCCCCCCC(N)=O)C(C)(C)CCC1=O = 81

----------
Test system: ND3 neuronal cell line
Experiment: Measurement of nerve growth stimulation effect (neurite bearing assay, neurite length assay, number of cells)
Type: cell-based
Conditions: 1 μM compound; ND3 cells, 6 h; relative cell number, DMSO well = 1
For each record, check the reported Number of cells: if it is below 0.9 write Criterion met, else write Criterion not met.

COCCCCCCCCCCCCCCCC1=C(C)C(N)CCC1(C)C (stereo not shown) [Compound 66] = Criterion not met
COCCCCCCCCCCCCCCCC1C(C)C(=O)CCC1(C)C (stereo not shown) [Compound 63] = Criterion not met
COCCCCCCCCCCCCCCC1=C(C)C(=O)CC1(C)C [Compound 72] = Criterion met
COCCCCCCCCCCCCCCCC1=C(C)CCCC1(C)C [Compound 64] = Criterion met
CCCC1=C(CCCCCCCCCCCCCCCOC)C(C)(C)CCC1=O [Compound 61] = Criterion met
CC1=C(CCCCCCCCCCCCCCC(N)=O)C(C)(C)CC1=O [Compound 74] = Criterion met
COCCCCCCCCCCCCCCCC1=C(C)C(O)CCC1(C)C (stereo not shown) [Compound 65] = Criterion not met
COCCCCCCCCCCCCCCCC1=C(C)/C(=N/OC)CCC1(C)C [Compound 68] = Criterion met

----------
Number of cells: recorded values
Test system: ND3 neuronal cell line
Assay: Measurement of nerve growth stimulation effect (neurite bearing assay, neurite length assay, number of cells)
Type: cell-based
Conditions: 10 μM compound; ND3 cells, 6 h; relative cell number, DMSO well = 1
Description: To evaluate the nerve growth stimulation effect, neurite bearing assay (proportion of neurite-bearing cells) and neurite length assay (neurite length) were analyzed with reference to the method of Topalli et al. (Brain Research 1030 (2004), pp. 116-124). An ND3 neuronal cell line (European Collection of Authenticated Cell Cultures) was seeded in a DMEM medium containing 10% fetal bovine serum (0.6×10^4 cells/1 mL) in a 24-well plate. […]
quantity_name: Number of cells

COCCCCCCCCCCCCCCCC1=C(C)C(=NO)CCC1(C)C [Compound 67] = 0.75
COCCCCCCCCCCCCC1=C(C)C(=O)CC1(C)C [Compound 70] = 0.86
COCCCCCCCCCCCCCCCC1=C(C)C(O)CCC1(C)C (centres unmarked) [Compound 65] = 0.87
COCCCCCCCCCCCCCCCC1=C(C)C(=O)CC1(C)C [Compound 69] = 0.80
CC1=C(CCCCCCCCCCCCCCC#N)C(C)(C)CC1=O [Compound 75] = 0.80
